- Test system: Rodentolepis nana
- Protocol Summary: Anthelmintic activity against Hymenolepis nana infected in mouse assessed as reduction in worm burden at 100 mg/kg administered bid for 3 days relative to control
- Format: functional
The source made the active and inactive calls. No cut-off for these calls is given here.
Assay Readout: Activity

COc1ccc(Nc2cc(C)nc3ccc4nc(C)[nH]c4c23)cc1 ... inactive
Cc1cc(Nc2ccc(Cl)cc2C)c2c(ccc3nc[nH]c32)n1 ... 100%
Cc1cc(Nc2cccc(Nc3ccc(N4CCCCC4)nc3)c2)c2c(ccc3nc[nH]c32)n1 ... inactive
CCC(C)c1ccc(Nc2cc(C)nc3ccc4nc[nH]c4c23)cc1 (configuration not stated) ... 100%
Cc1cc(Nc2ccc(C)c([N+](=O)[O-])c2)c2c(ccc3nc[nH]c32)n1 ... inactive

Query: Name the reported Activity value associated with the compound `CCOc1ccc(OC)cc1Nc1cc(C)nc2ccc3nc[nH]c3c12`
Reply: 100%

Query: Name the reported Activity value associated with the compound `CSc1ccccc1Nc1cc(C)nc2ccc3nc[nH]c3c12`
Reply: inactive

Query: Name the reported Activity value associated with the compound `Cc1cc(Nc2ccc(F)c(Cl)c2)c2c(ccc3nc[nH]c32)n1`
Reply: 82%

Query: Name the reported Activity value associated with the compound `Cc1cc(Nc2ccc(OCCC(C)C)c(OCCC(C)C)c2)c2c(ccc3nc[nH]c32)n1`
Reply: 100%

Query: Name the reported Activity value associated with the compound CCCC(C)Oc1ccc(Nc2cc(C)nc3ccc4nc[nH]c4c23)cc1OC(C)CCC (configuration not stated)
Reply: 100%

Query: Name the reported Activity value associated with the compound `CCCCCCOc1ccc(C(=N)N(CCCC)CCCC)c2ccccc12`
Reply: 100%

Query: Name the reported Activity value associated with the compound `COc1ccc(Nc2cc(-c3ccccc3)nc3ccc4nc[nH]c4c23)cc1`
Reply: 66%

Query: Name the reported Activity value associated with the compound `COc1ccc(OC)c(Nc2cc(C)nc3ccc4nc[nH]c4c23)c1`
Reply: 100%

Query: Name the reported Activity value associated with the compound `COc1cccc(Nc2cc(C)nc3ccc4[nH]cnc4c23)c1`
Reply: 73%

Query: Name the reported Activity value associated with the compound `Cc1cc(Nc2ccc(N3CCN(C)CC3)c(Cl)c2)c2c(ccc3nc[nH]c32)n1`
Reply: inactive

Query: Name the reported Activity value associated with the compound `COc1ccc(Nc2cccc(Nc3cc(C)nc4ccc5nc[nH]c5c34)c2)cn1`
Reply: 100%

Query: Name the reported Activity value associated with the compound `Cc1cc(Nc2cccc(Nc3ccccc3)c2)c2c(ccc3nc[nH]c32)n1`
Reply: inactive

Query: Name the reported Activity value associated with the compound `Cc1cc(Nc2ccccc2-c2ccccc2)c2c(ccc3nc[nH]c32)n1`
Reply: inactive

Query: Name the reported Activity value associated with the compound `COc1cc(Cl)ccc1Nc1cc(C)nc2ccc3nc[nH]c3c12`
Reply: 52%

Query: Name the reported Activity value associated with the compound `COc1cc(Nc2cc(C)nc3ccc4nc[nH]c4c23)cc(OC)c1OC`
Reply: 70%

Query: Name the reported Activity value associated with the compound `CCOc1ccc(Nc2cc(C)nc3ccc4nc[nH]c4c23)cc1OCC`
Reply: 100%

Query: Name the reported Activity value associated with the compound `Cc1cc(Nc2ccc(/N=N\c3ccccc3)cc2)c2c(ccc3nc[nH]c32)n1`
Reply: inactive

Data provenance is ChEMBL document CHEMBL3244292.
